System: UO-31 renal
Test: NCI-60 one-dose screen, 48 h (100 = growth as untreated, 0 = no growth, -100 = all killed)
Conditions: 10 µM unless noted
About 83,000 compounds went through this panel and 20% of them were active in at least one assay; those are over-represented in the sample as a whole. Calls of active or inactive are those of the source. How the source made its calls: active means growth percent below 10; inactive means the rest.
Exercise: state measured growth for each of the compounds provided.

// map NC1C2CCC1CN(c1cnc(C(=O)Nc3cc(F)cc4cccnc34)cn1)C2 (stereo not given) to recorded growth (system: UO-31 renal) 34.9% (inactive)

Form field - read-out: growth; system: UO-31 renal; submitted item: CCc1cc2c(cc1Cl)nc1c(=O)[nH]c(=O)nc-1n2CCOCC(C)C 57.1% (inactive)

Notebook entry, UO-31 renal assay: growth of NS(=O)(=O)c1ccc(Nc2nc(N/N=C/C=C/c3ccccc3)nc(Nc3ccccc3)n2)cc1 = ? 39.6% (inactive)

Param readout= growth; system= UO-31 renal; entry= Brc1cc(-c2cc(-c3ccc4c(c3)OCCO4)[nH]n2)cs1 ; returns value. 54.6% (inactive)

Form field - read-out: growth; system: UO-31 renal; submitted item: NC(=S)n1c(=O)n(-c2cccc(C(F)(F)F)c2)c(=O)c2cc(-c3ccc(F)cc3F)ccc21 6.1% (active)

Data origin: PubChem BioAssay (NCI)
